- targetOrTestSystem: T1, hIL-18BP-hFc (human, UniProt O95998 31-194, limits assumed)
- T1 sequence (looked up): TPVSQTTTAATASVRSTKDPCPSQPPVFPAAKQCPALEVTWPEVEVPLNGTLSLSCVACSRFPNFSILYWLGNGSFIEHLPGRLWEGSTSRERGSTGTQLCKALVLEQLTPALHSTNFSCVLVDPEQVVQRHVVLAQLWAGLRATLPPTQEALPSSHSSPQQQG
- protocolSummary: cell-based or functional assay
observedProperty: EC50 (nM) in the Presence of 1 µg/mL hIL-18BP-hFc, PBMC assay (hIFNγ release)
Give bare numbers, in nM.

binder | value
IL-18 variant polypeptide M12 (ligand) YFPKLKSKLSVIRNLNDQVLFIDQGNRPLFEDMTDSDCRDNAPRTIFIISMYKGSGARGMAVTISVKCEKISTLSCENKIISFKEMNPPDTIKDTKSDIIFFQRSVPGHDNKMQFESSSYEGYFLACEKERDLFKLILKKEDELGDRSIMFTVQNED | 0.045
IL-18 variant polypeptide M24 (ligand) YFPKLRSKLSVIRNLNDQVLFIDQGNRPLFEDMTDSDCRDNAPRTIFIISMYKYSTSRGMAVTISVKCEKISTLSCENKIISFKEMNPPDNIKDTKSDIIFFQRSVPGHDNKMQFESSSYEGYFLACEKERDLFKLILKKEDELGDRSIMFTVQNED | 0.08

Now for a further binder.
Consider IL-18 variant polypeptide WM10 (ligand) YFPKLKSKLSVIRNLNDQVLFIDQGNRPLFEDMTDSDCRDNAPRTIFIISMYKDSQPRGMAVTISVKCEKISTLSCENKIISFKEMNPPDSIKDTKSDIIFFQRSVPGHDNKMQFESSSYEGYFLACEKERDLFKLILKKEDELGDRSIMFTVQNED . Its measured EC50 (nM) in the Presence of 1 µg/mL hIL-18BP-hFc, PBMC assay (hIFNγ release) is 0.44
